# ASSAY_TARGET: T1, Kap60 lacking the IBB (ΔIBB-Kap60) (S. cerevisiae, UniProt Q02821 88-509)
# T1 sequence: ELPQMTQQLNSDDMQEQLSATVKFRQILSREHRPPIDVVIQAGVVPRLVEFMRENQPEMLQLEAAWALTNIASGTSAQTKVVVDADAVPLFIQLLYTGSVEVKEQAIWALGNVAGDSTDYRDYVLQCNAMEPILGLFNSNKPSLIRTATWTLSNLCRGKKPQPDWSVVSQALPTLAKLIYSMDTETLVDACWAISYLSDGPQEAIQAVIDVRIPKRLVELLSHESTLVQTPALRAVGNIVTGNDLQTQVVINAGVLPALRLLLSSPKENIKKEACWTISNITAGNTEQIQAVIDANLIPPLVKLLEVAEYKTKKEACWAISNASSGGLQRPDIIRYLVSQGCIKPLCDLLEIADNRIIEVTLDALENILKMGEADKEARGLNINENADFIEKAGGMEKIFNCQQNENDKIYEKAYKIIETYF
# EXPERIMENT_SUMMARY: ITC
pKd: −log10 of the molar value.
READOUT: pKd

// below: answered binders
Bench note: what pKd did TNKRKREQISTDNEAKMQIQEEKSPKKKRKKRSSKANK (peptide, UniProt Q03281 100-137, looked up) [MBP-tagged h2NLS (MBP-h2NLS), wild type] show?
7.56

Bench note: what pKd did TNKAKREQISTDNEAKMQIQEEKSPKAKRKKRSSKANK (peptide, UniProt Q03281 100-137, looked up) [MBP-h2NLS with Ala-mutations at positions P2' and P2 (R103A, K126A)] show?
6.78

Bench note: what pKd did TNKAKREQISTDNEAKMQIQEEKSPKKKRKKRSSKANK (peptide, UniProt Q03281 100-137, looked up) [MBP-h2NLS with Ala-mutation at position P2' (R103A)] show?
6.88

(P) TNKRKREQISTDNEAKMQIQEEKSPKAKRKKRSSKANK (peptide, UniProt Q03281 100-137, looked up) [MBP-h2NLS with Ala-mutation at position P2 (K126A)]
(Q) MBP-tagged h1NLS (MBP-h1NLS), wild type (peptide, UniProt Q03707 171-221, looked up) DTRKKRKDPDSDDWSESNSKENKIDNKHLNLLSSDSEIEQDYQKAKKRKTS
Between P and Q , which one shows the smaller pKd number? Use the label to indicate which entry you chose.
P
(P: 6.97, Q: 7.52)

(a) MBP-h1NLS with Ala-mutation at position P2' (R176A) (peptide, UniProt Q03707 171-221, looked up) DTRKKAKDPDSDDWSESNSKENKIDNKHLNLLSSDSEIEQDYQKAKKRKTS
(b) MBP-h1NLS with Ala-mutation at position P2 (K190A) (peptide, UniProt Q03707 171-221, looked up) DTRKKRKDPDSDDWSESNSAENKIDNKHLNLLSSDSEIEQDYQKAKKRKTS
Compare a and b by numeric pKd and name the larger one. Use the label to indicate which entry you chose.
b
(b: 7.16, a: 6.91)
